test: NCI Yeast Anticancer Drug Screen. Data for the mlh1 rad18 strain (AID 175); details: S. cerevisiae mlh1 rad18 strain growth inhibition; at 50.0 µM; hits give high values
This is part of a sample that, as a whole, favours compounds with a hit. Of some 79,000 tested, about 15% had one in any assay.

# record-smiles, growth inhibition / %
data = [
    ("CNC(=O)c1cc(NC(=O)c2ccc(C(=O)Nc3cc(C(=O)NC)cc(C4=NCCN4)c3)cc2)cc(C2=NCCN2)c1", 98.6),
    ("Cc1cc(C)nc(/C=C/c2ccccc2)c1", 97.8),
    ("Nc1nc(=Nc2ccccc2)ss1", 78.7),
    ("Cc1ccc2c(-c3ccccc3)c3ccccc3cc2c1C", 53.4),
    ("Cn1c(=S)c2[nH]c(SCCN3CCCCC3)nc2n(C)c1=O", 98.5),
    ("Cn1nc(-c2ccccc2NC(=O)C(F)(F)F)c(=O)n(C)c1=S", 73.9),
]
